Hey, just so you know, these numbers are from ChEMBL document CHEMBL1136660.

Organism: Cavia porcellus
Assay: Inhibitory concentration against IKs current was measured in isolated guinea pig myocytes during a 1 s voltage clamp step […]
Assay type: functional
Field: label. Allowed values: 1 (IC50 < 4 nM) or -1 (IC50 >= 4 nM).

CN1C(=O)C(NC(=O)Cc2ccc(C(F)(F)F)cc2C(F)(F)F)N=C(C2CC2)c2ccccc21 (stereo in doubt; 4 (+)) : -1
CCCN1C(=O)C(NC(=O)Cc2ccc(C(F)(F)F)cc2C(F)(F)F)N=C(C2CC2)c2ccccc21 (single isomer, unassigned; (-)) : 1
CCN1C(=O)C(NC(=O)Cc2ccc(C(F)(F)F)cc2C(F)(F)F)N=C(C2CC2)c2ccccc21 (stereo in doubt; 6 (+)) : -1

Enquiry: hey, is IC50 for CC[C@@H](C)N1C(=O)C(NC(=O)Cc2ccc(C(F)(F)F)cc2C(F)(F)F)N=C(C2CC2)c2ccccc21 (single isomer, unassigned; (-)) lower than 4 nM or not?
Return: 1

Enquiry: hey, is IC50 for CC[C@H](C)N1C(=O)C(NC(=O)Cc2ccc(C(F)(F)F)cc2C(F)(F)F)N=C(C2CC2)c2ccccc21 (single isomer, unassigned; (+)) lower than 4 nM or not?
Return: -1

* * *

Species: Cavia porcellus
Assay: Inhibitory concentration against IKs current was measured in isolated guinea pig myocytes during a 1 s voltage clamp step […]
Type: functional
Property: pIC50
Keep it numeric: pIC50 is minus log10 of the concentration in mol/L.

Enquiry: What value of pIC50 has been recorded for this entry: CC[C@@H](C)N1C(=O)C(NC(=O)Cc2ccc(C(F)(F)F)cc2C(F)(F)F)N=C(c2ccccc2)c2ccccc21 (stereo in doubt; 15 (-))
Return: 7.36

Enquiry: What value of pIC50 has been recorded for this entry: CC[C@@H](C)N1C(=O)C(NC(=O)Cc2ccc(C(F)(F)F)cc2C(F)(F)F)N=C(C2CC2)c2ccccc21 (single isomer, unassigned; (+))
Return: 7.30

Enquiry: What value of pIC50 has been recorded for this entry: CC[C@H](C)N1C(=O)C(NC(=O)Cc2ccc(C(F)(F)F)cc2C(F)(F)F)N=C(C2CC2)c2ccccc21 (single isomer, unassigned; (-))
Return: 9.40

Enquiry: What value of pIC50 has been recorded for this entry: CCCN1C(=O)C(NC(=O)Cc2ccc(C(F)(F)F)cc2C(F)(F)F)N=C(C2CC2)c2ccccc21 (single isomer, unassigned; (+))
Return: 6.78

Enquiry: What value of pIC50 has been recorded for this entry: CC[C@@H](C)N1C(=O)C(NC(=O)Cc2ccc(C(F)(F)F)cc2C(F)(F)F)N=C(c2ccccc2)c2ccccc21 (single isomer, unassigned; (+))
Return: 8.43

Enquiry: What value of pIC50 has been recorded for this entry: CN1C(=O)C(NC(=O)Cc2ccc(C(F)(F)F)cc2C(F)(F)F)N=C(C2CC2)c2ccccc21 (single isomer, unassigned; (-))
Return: 6.55

* * *

Assay: Percent metabolized in an in vitro human liver microsomal incubation assay after 60 min
Type: ADME, Microsome
Details: liver microsomes, read-out: Metabolism
Property: metabolised at 1 h (%)
Expressed in %, but write only the number.

Enquiry: What value of metabolised at 1 h has been recorded for this entry: CC(C)C1=NC(NC(=O)Cc2ccc(C(F)(F)F)cc2C(F)(F)F)C(=O)N(CC(F)(F)F)c2ccccc21 (configuration not stated)
Return: 70
